Assay: Pharmacokinetic study in mice, intragastric administration
Format: in vivo
Conditions: mouse; male ICR mice, PO dose 5 mg/kg, plasma; read-out: AUC(0-24)
Procedure: Instrument: API4000+LC/MS instrument manufactured by AB Sciex. All measurement data was collected and processed by Analyst 1.6.3 software, and data was calculated and processed by Microsoft Excel. […] Accurately weigh the compounds to different concentrations, perform quantitative analysis on the mass spectrometer to establish a standard curve, and then test the concentration of the compound in the above plasma to obtain the concentration of the compound at different time points. […]
assay_readout: AUC(0-t) (ng·h/mL)

(A) Cc1nc2c(F)cc(-c3nc(Nc4ccc5c(c4)OC[C@H]4CN(C6CCOCC6)CCN54)ncc3F)cc2n1C(C)C [Compound B2R]
(B) NC(=O)c1cnc(Nc2ccc3c(c2)OC[C@H]2CN(S(=O)(=O)C4CC4)CCN32)nc1NC1CC1 [Compound C10R]
[Q] Please indicate which item has the smaller measured AUC(0-t): A versus B Answer = label.
[A] B

###

Biological target: FLT3 (Homo sapiens, UniProt P36888)
Sequence (P36888 27-993): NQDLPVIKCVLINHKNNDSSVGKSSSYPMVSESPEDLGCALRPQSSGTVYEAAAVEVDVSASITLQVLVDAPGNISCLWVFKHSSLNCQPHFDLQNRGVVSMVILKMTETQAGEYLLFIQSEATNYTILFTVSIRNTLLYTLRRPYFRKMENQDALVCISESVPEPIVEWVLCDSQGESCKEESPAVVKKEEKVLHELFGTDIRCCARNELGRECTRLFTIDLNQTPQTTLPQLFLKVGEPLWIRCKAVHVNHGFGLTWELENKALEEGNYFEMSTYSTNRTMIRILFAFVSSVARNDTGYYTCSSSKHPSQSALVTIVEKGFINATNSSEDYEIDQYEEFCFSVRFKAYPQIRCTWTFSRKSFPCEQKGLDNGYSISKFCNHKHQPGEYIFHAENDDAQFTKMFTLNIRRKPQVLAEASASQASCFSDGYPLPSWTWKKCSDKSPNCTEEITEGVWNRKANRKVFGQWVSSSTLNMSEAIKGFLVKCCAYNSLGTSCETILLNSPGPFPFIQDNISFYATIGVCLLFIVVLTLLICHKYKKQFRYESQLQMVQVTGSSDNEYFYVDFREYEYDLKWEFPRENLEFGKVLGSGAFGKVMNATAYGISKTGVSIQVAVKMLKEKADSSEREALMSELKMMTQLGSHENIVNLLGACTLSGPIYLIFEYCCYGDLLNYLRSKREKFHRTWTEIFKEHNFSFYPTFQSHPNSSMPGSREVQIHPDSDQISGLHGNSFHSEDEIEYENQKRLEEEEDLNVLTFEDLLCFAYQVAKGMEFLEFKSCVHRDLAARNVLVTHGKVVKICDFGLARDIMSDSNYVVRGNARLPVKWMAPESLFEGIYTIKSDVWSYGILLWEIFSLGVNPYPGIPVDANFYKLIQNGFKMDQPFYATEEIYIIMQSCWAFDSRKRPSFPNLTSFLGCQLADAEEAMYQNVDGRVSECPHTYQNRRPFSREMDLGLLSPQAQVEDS
assay_readout: IC50

> print(dat)
                            compound.string  recorded.value
1  CCc1nc(C(N)=O)c(Nc2ccc3c(c2)OC[C@H]2COCCN32)nc1NC1CCOCC1         < 10 nM

Shifting focus to the molecule that follows.
[Q] Consider the molecule `CCc1nc(C(N)=O)c(Nc2ccc3c(c2)OC[C@H]2CN(CC(F)(F)F)CCN32)nc1NC1CCOCC1` tested on FLT3 (Homo sapiens, UniProt P36888); state its IC50.
[A] < 10 nM
